From: ChEMBL document CHEMBL5053540

- experiment summary: Non-competitive inhibition of Saccharomyces cerevisiae alpha-glucosidase assessed as inhibition constant by secondary re-plot of Lineweaver-burk plot analysis
endpoint label: pKi
Remember, pKi is on a log scale: it is -log10 of the molar concentration.

Bench note: what pKi did "O=C1/C(=N\Nc2nncs2)c2ccccc2N1Cc1ccc(Cl)cc1" show?
5.56

###

- experiment summary: Inhibition of Saccharomyces cerevisiae alpha-glucosidase using pNPG as substrate
endpoint label: pIC50
Remember, pIC50 is on a log scale: it is -log10 of the molar concentration.

Bench note: what pIC50 did "Cc1ccc(CN2C(=O)/C(=N\Nc3nncs3)c3ccccc32)cc1" show?
4.53

Thanks! And "COc1ccc(CN2C(=O)/C(=N\Nc3nncs3)c3ccccc32)cc1" ?
4.34

Thanks! And "Cc1cccc(CN2C(=O)/C(=N\Nc3nncs3)c3ccccc32)c1" ?
4.49

Thanks! And "O=C1/C(=N\Nc2nncs2)c2ccccc2N1Cc1ccc(Cl)cc1" ?
5.51

Thanks! And "O=C1/C(=N\Nc2nncs2)c2ccccc2N1Cc1ccccc1" ?
4.68

Thanks! And "O=C1/C(=N\Nc2nncs2)c2ccccc2N1Cc1ccccc1F" ?
4.73

Thanks! And "Cc1ccccc1CN1C(=O)/C(=N\Nc2nncs2)c2ccccc21" ?
4.60

Thanks! And "O=C1/C(=N\Nc2nncs2)c2ccccc2N1Cc1ccccc1Cl" ?
5.07

Thanks! And "O=C1/C(=N\Nc2nncs2)c2ccccc2N1Cc1cccc(Cl)c1" ?
5.14

Thanks! And Oc1ccc(/C=C/c2cc(O)cc(O)c2)cc1 [RESVERATROL] ?
4.66

Thanks! And "COc1cccc(CN2C(=O)/C(=N\Nc3nncs3)c3ccccc32)c1" ?
4.37

Thanks! And "O=C1/C(=N\Nc2nncs2)c2ccccc2N1Cc1ccccc1Br" ?
4.88
